Provide the reported Ratio Ki of each item.
Organism: Homo sapiens
Assay: Selectivity ratio Ki for human dopamine D2L receptor to Ki for human dopamine D3 receptor
Answers are plain numbers.

compound	endpoint.name	measured.result
CN(CCC(O)CN1CCN(c2cccc(Cl)c2Cl)CC1)Cc1ccc2c(c1)Cc1ccccc1-2 (centres undefined)	Ratio Ki	5

Provide each entry's Ratio Ki from the list below.
1. COc1ccc2[nH]c(C(=O)NCCC(F)CN3CCN(c4cccc(Cl)c4Cl)CC3)cc2c1 (centres undefined)
2. CCCN(CCCCN1CCN(c2ccccc2OC)CC1)Cc1ccc2ccccc2c1
3. CCCN(CCCCN1CCN(c2ccccc2OC)CC1)Cc1cc2ccccc2s1
4. O=C(NC/C=C/CN1CCN(c2cccc(Cl)c2Cl)CC1)c1ccc(-c2ccccn2)cc1
5. CN(CCC(F)CN1CCN(c2cccc(Cl)c2Cl)CC1)Cc1ccc2c(c1)Cc1ccccc1-2 (centres undefined)

**Result**
153
1.5
1
133
5

Hey, quick one: what's Ratio Ki for each of these?
1. O=C(NCCC(F)CN1CCN(c2cccc(Cl)c2Cl)CC1)c1ccc2c(c1)Cc1ccccc1-2 (centres undefined)
2. COc1ccccc1N1CCN(CC(F)CCNC(=O)c2ccc3c(c2)Cc2ccccc2-3)CC1 (centres undefined)
3. CCCN(CCCCN1CCN(c2cccc(Cl)c2Cl)CC1)Cc1cc2ccccc2s1

**Result**
[1640, 286, 2]

====

Would you mind telling me the reported pIC50 of each entry?
Biological target: D(3) dopamine receptor (Homo sapiens)
Sequence (P35462 whole entry): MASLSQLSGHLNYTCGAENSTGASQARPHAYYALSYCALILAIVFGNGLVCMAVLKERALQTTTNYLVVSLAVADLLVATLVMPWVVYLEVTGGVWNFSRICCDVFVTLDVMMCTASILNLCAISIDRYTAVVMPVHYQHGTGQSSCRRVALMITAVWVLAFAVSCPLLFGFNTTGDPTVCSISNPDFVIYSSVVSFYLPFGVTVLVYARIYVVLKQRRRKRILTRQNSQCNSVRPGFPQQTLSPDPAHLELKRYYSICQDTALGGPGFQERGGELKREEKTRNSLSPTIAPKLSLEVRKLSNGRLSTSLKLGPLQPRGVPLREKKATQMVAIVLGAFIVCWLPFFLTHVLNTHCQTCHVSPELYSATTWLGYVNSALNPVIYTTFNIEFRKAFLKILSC
Test: Antagonist activity at human dopamine D3 receptor expressed in CHO-K1 cells assessed as inhibition of dopamine-induced recruitment of beta-arrestin-2 after 90 mins by beta-galactosidase assay
Format: functional, cell-based
Give bare numbers, as −log10 of the molar value.

The following compounds have reported results that may help.
compound	pIC50
COc1ccccc1N1CCN(CC(F)CCNC(=O)c2cc3ccccc3s2)CC1 (stereo unspecified)	5.49
COc1ccc2[nH]c(C(=O)NCCC(F)CN3CCN(c4ccccc4OC)CC3)cc2c1 (stereo unspecified)	5.52
COc1ccccc1N1CCN(CC(F)CCNC(=O)c2ccc(-c3ccccn3)cc2)CC1 (stereo unspecified)	6.16
O=C(NCCC(F)CN1CCN(c2cccc(Cl)c2Cl)CC1)c1cc2ccccc2[nH]1 (stereo unspecified)	5.91
COc1ccc2oc(C(=O)NCCC(F)CN3CCN(c4ccccc4OC)CC3)cc2c1 (stereo unspecified)	5.91

Now for a further compound.
Kindly note the recorded pIC50 for O=C(NCCC(F)CN1CCN(c2cccc(Cl)c2Cl)CC1)c1cc2ccccc2s1 (stereo unspecified) , which is 5.42

====

Molecular target: 5-hydroxytryptamine receptor 1A (Homo sapiens, UniProt P08908)
Sequence (P08908 whole entry): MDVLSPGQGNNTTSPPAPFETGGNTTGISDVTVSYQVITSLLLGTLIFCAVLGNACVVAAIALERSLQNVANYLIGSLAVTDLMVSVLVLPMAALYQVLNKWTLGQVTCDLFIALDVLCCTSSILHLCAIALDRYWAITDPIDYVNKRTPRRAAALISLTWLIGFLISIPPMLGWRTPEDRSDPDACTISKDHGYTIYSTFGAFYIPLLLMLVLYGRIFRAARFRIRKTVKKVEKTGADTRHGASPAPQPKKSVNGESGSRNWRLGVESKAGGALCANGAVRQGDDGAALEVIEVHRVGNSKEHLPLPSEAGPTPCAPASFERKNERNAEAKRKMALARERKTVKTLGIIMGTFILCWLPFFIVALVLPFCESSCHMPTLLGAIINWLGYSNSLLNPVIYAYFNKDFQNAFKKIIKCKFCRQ
Test: Agonist activity at 5HT1A receptor assessed as stimulation of [35S]GTPgammaS binding
Give pEC50 for every item shown.
Numbers only, as −log10 of the molar value.

Examples from the recorded data:
compound	pEC50
COc1ccccc1N1CCN(CC(F)CCNC(=O)c2cc3ccccc3s2)CC1 (configuration not stated)	6.36
O=C(NCCC(F)CN1CCN(c2cccc(Cl)c2Cl)CC1)c1cc2ccccc2[nH]1 (configuration not stated)	5.67

Provide the reported pEC50 of each entry below, same order.
1. COc1ccccc1N1CCN(CC(F)CCNC(=O)c2cc3ccccc3[nH]2)CC1 (configuration not stated)
2. COc1ccc2oc(C(=O)NCCC(F)CN3CCN(c4ccccc4OC)CC3)cc2c1 (configuration not stated)

**Result**
1: 5.84; 2: 6.22

// batch mode: one pEC50 value per listed entry
1. O=C(NCCC(F)CN1CCN(c2cccc(Cl)c2Cl)CC1)c1ccc(-c2ccccn2)cc1 (configuration not stated)
2. COc1ccccc1N1CCN(CC(F)CCNC(=O)c2cc3ccccc3o2)CC1 (configuration not stated)

**Result**
[5.97, 6.87]

Record summary for COc1ccccc1N1CCN(CC(F)CCNC(=O)c2ccc(-c3ccccn3)cc2)CC1 (configuration not stated) : reported pEC50 = 7.15
